Form field: melting point (one value per entry).

As a guide, the following entries are already answered.
[[record]]
sample_smiles = "O=C(O)C[C@]1(c2ccc(-c3ccc4cc(-c5cnco5)ccc4c3)s2)CCCCS1(=O)=O"
measured_attribute = "melting point"
recorded_value = "260 to 265 °C"

[[record]]
sample_smiles = "Cc1ccc2sc(-c3ccc([C@@]4(CC(=O)O)CCCCS4(=O)=O)s3)cc2c1"
measured_attribute = "melting point"
recorded_value = "209 to 213 °C"

[[record]]
sample_smiles = "O=C(O)C[C@]1(c2ccc(C#Cc3ccc(Cl)cc3)s2)CCCCS1(=O)=O"
measured_attribute = "melting point"
recorded_value = "203 to 204 °C"


So for `CNC(=O)c1ccc2cc(-c3ccc([C@@]4(CC(=O)O)CCCCS4(=O)=O)s3)ccc2c1` , the logged melting point turned out to be 230 to 232 °C
